- system_name: TBK1 (Homo sapiens (Human), UniProt Q9UHD2)
- Sequence (Q9UHD2 whole entry): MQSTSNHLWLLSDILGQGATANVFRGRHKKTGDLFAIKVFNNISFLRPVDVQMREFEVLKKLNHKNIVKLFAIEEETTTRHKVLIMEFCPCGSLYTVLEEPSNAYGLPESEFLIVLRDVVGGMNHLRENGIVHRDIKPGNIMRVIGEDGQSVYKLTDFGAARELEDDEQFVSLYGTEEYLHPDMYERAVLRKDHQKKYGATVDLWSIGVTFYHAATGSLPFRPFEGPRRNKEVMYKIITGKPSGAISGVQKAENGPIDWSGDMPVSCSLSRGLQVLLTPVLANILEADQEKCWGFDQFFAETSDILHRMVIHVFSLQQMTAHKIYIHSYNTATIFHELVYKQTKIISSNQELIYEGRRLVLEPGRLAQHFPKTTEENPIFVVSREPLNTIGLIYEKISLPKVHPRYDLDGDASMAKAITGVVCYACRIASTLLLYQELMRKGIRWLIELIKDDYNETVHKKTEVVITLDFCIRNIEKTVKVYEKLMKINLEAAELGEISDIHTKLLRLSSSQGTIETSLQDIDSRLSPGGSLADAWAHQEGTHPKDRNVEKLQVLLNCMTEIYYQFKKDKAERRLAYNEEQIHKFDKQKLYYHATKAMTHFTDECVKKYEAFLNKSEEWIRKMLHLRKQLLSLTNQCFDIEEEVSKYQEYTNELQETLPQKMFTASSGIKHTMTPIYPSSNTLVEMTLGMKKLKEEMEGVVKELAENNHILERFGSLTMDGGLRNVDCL
- assay_method_text: TBK1 low ATP kinase assay (in vitro assay 1)
- Assay type: biochemical
- measurement_context: in vitro assay 1, read-out: TBK1 low ATP kinase assay IC50
Lab note - cut at 200 nM for IC50: 1 if strictly below, -1 if not.

Example entries begin here.
>>> df
                                   compound  class_name
0  COc1cncnc1-c1ccc2nc(Nc3cc(CN4CCN(C(=O)N5CCCC5)CC4)ccn3)[nH]c2c1           1
1  Cc1noc(-c2ccc3nc(Nc4cc(CN5CCN(C(=O)C6CC6)CC5)ccn4)[nH]c3c2C)n1          -1
2  COc1cnc(C)cc1-c1ccc2nc(Nc3cc(CN4CCN(C(=O)CC(F)(F)F)CC4)ccn3)[nH]c2c1          -1
3  COc1c(-c2ccc3nc(Nc4cc(CN5CCN(C(=O)C6(C(F)(F)F)CC6)CC5)ccn4)[nH]c3c2)ncnc1N(C)CC1CC1           1
4  CC(=O)N1CCN(Cc2ccnc(Nc3nc4ccc(-c5ncnc(C)c5C)cc4[nH]3)c2)CC1          -1

Record `COc1ncccc1-c1ccc2nc(Nc3cc(CN4CCN(C(=O)CC(F)(F)F)CC4)ccn3)[nH]c2c1` : is its IC50 strictly below 200 nM?
-1

hey, is IC50 for CC(c1ccnc(Nc2nc3ccc(-c4cnn(CC5CCC5)c4)c(F)c3[nH]2)c1)N1CCN(C(=O)CC(F)(F)F)CC1 (single isomer, unassigned) lower than 200 nM or not?
1

# check: IC50 < 200 nM for `COc1cnccc1-c1ccc2nc(Nc3cc(CN4CCN(C(=O)C5CC5)CC4)ccn3)[nH]c2c1`
1

Item CC(c1ccnc(Nc2nc3ccc(-c4ccncn4)cc3[nH]2)c1)N1CCN(C(=O)CC(F)(F)F)CC1 (single isomer, unassigned) [Example 23.05.02.A] : IC50 beneath 200 nM, strictly?
1

Is 200 nM strictly greater than the compound's reported IC50? compound: `CCOc1c(-c2ccncc2OC)ccc2nc(Nc3cc(CN4CCN(C(=O)CC5CC5)CC4)ccn3)[nH]c12`
-1

Hello, I'm reviewing records and need to know if IC50 of `Cc1noc(-c2ccc3nc(Nc4cc(CN5CCN(c6ccc(C(F)(F)F)cn6)CC5)ccn4)[nH]c3c2)n1` is below 200 nM. Could you check?
-1

In the record for `O=C(CC(F)(F)F)N1CCN(Cc2ccnc(Nc3nc4ccc(-c5cnc(Cl)nc5)cc4[nH]3)c2)CC1` , is IC50 less than 200 nM?
1

Would you kindly verify if IC50 of `COc1cc(-c2ccc3nc(Nc4cc(CN5CCN(C(=O)CC(F)(F)F)CC5)ccn4)[nH]c3c2)ccn1` is strictly less than 200 nM?
1

----------
- system_name: TBK1 (Homo sapiens (Human))
- assay_method_text: TBK1 low ATP kinase assay (in vitro assay 1)
- Type: biochemical
- measurement_context: in vitro assay 1, read-out: TBK1 low ATP kinase assay IC50
The entries below are paired with their reported IC50.
Respond with the bare value in nM.

Here is how some molecules turned out for IC50.
>>> df
                                   molecule  measurement_units  quantitative_result
0  Cc1nccc(-c2ccc3nc(Nc4cc(C(C)N5CCN(C(=O)C6CCC6)CC5)ccn4)[nH]c3c2)n1 (racemic) [Example 24.04.02]                 nM                 16.1
1  COc1c(-c2ccc3nc(Nc4cc(CN5CCN(C(=O)C6CC6)CC5)ccn4)[nH]c3c2)ncnc1N(C)C                 nM                   16
2  CC(c1ccnc(Nc2nc3ccc(-c4ccncn4)cc3[nH]2)c1)N1CCN(C(=O)C2CC2)CC1 (single isomer, unassigned) [Example 23.05.01.B]                 nM                 12.4

Output reported IC50 of the molecule `Cc1cc(-c2ccc3nc(Nc4cc(CN5CCN(C(=O)CC6CC6)CC5)ccn4)[nH]c3c2)ncn1` on TBK1 (Homo sapiens (Human)).
16.9
